target: Baculoviral IAP repeat-containing protein 2 (Homo sapiens, UniProt Q13490); experiment: Binding affinity to cIAP1 in human MDA-MB-231 cells assessed as induction of protein degradation after 1 hr by ELISA
Sequence (Q13490 whole entry): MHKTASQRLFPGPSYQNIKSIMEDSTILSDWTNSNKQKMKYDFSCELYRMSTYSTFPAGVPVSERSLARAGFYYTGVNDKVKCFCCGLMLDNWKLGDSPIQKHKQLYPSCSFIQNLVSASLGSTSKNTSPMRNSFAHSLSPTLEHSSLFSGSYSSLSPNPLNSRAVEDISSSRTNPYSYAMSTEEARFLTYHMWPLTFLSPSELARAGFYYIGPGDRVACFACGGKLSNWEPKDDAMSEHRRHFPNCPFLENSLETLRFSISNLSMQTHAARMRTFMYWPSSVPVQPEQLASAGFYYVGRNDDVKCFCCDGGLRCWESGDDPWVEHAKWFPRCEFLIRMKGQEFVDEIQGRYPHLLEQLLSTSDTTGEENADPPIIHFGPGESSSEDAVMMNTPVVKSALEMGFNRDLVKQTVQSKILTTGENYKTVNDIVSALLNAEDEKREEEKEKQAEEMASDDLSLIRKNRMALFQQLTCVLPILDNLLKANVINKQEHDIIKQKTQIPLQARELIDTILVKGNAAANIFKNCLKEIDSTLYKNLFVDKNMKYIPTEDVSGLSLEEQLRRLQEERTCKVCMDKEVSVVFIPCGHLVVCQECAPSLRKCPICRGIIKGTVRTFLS
Observed property: EC50 (nM)

| Molecule smiles | Observed property | Value unit | Qual | Reported measurement |
| --- | --- | --- | --- | --- |
| CN[C@@H](C)C(=O)N[C@H](C(=O)N1CCC[C@H]1C(=O)N[C@H]1c2ccccc2C[C@H]1OCC#CC#CCO[C@@H]1Cc2ccccc2[C@@H]1NC(=O)[C@@H]1CCCN1C(=O)[C@@H](NC(=O)[C@H](C)NC)C(C)C)C(C)C | EC50 | nM | = | 2 |
| CN[C@@H](C)C(=O)N[C@H](C(=O)N1CCC[C@H]1C(=O)N[C@H]1c2ccccc2C[C@H]1OCC#CC#CCO[C@@H]1Cc2ccccc2[C@@H]1NC(=O)[C@@H]1CCCN1C(=O)[C@@H](NC(=O)[C@H](C)NC)C1CCNCC1)C1CCNCC1 | EC50 | nM | > | 370 |
| CN[C@@H](C)C(=O)N[C@H](C(=O)N1CC=C[C@H]1C(=O)N[C@H]1c2ccccc2C[C@H]1OCC#CC#CCO[C@@H]1Cc2ccccc2[C@@H]1NC(=O)[C@@H]1C=CCN1C(=O)[C@@H](NC(=O)[C@H](C)NC)C1CCCCC1)C1CCCCC1 | EC50 | nM | = | 0.3 |
| CN[C@@H](C)C(=O)N[C@H](C(=O)N1[C@H](C(=O)N[C@H]2c3ccccc3C[C@H]2OCC#CC#CCO[C@@H]2Cc3ccccc3[C@@H]2NC(=O)[C@@H]2C[C@@H]3C[C@@H]3N2C(=O)[C@@H](NC(=O)[C@H](C)NC)C2CCCCC2)C[C@@H]2C[C@@H]21)C1CCCCC1 | EC50 | nM | = | 0.1 |

This collection of values is drawn from ChEMBL document CHEMBL3108710.
